TARGET: sigma receptors (Cavia porcellus, UniProt Q60492)
Construct: Brain tissue was prepared from male Hartley guinea pigs; from tissue; host or cells: guinea pig brain membranes
Sequence (Q60492 whole entry): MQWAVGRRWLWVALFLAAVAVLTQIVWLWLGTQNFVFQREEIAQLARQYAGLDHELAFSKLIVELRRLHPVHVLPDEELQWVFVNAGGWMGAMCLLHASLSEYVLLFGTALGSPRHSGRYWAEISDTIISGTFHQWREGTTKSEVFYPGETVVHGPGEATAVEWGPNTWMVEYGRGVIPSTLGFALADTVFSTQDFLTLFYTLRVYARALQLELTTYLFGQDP
ASSAY_TEXT: sigma receptor binding, [^3 H]-(+)-pentazocine, guinea pig brain membranes
CONDITION_LABEL: mean or mean ±SEM of at least two separate determinations performed in triplicate; 37° C., 150 min; read-out: [^3 H] (+)-Pentazocine Ki
MEASURED_PROPERTY: pKi
// field semantics: pKi = negative decimal log of concentration (mol/L)

[
  {
    "MOLECULE": "CCCN1CC[C@@H](C)[C@@](C)(CCCOCC2CC2)[C@@H]1C (relative stereo) [Example 3f]",
    "TARGET": "sigma receptors (Cavia porcellus, UniProt Q60492)",
    "RESULT_NUMBER": 7.35
  },
  {
    "MOLECULE": "CC(C)N1CC[C@@H](C)[C@@](C)(CCCOCC2CC2)[C@@H]1C (relative stereo) [Example 5b]",
    "TARGET": "sigma receptors (Cavia porcellus, UniProt Q60492)",
    "RESULT_NUMBER": 6.36
  },
  {
    "MOLECULE": "C=CCOCCC[C@]1(C)[C@H](C)CCN(C)[C@H]1C (relative stereo) [Example 6]",
    "TARGET": "sigma receptors (Cavia porcellus, UniProt Q60492)",
    "RESULT_NUMBER": 6.25
  }
]

Please find the next molecule below.
## Task Provide pKi value for the following molecule: C[C@@H]1CCN(C)[C@@H](C)[C@@H]1CCCOCC1CC1 (relative stereo) [Example 2c]
## Result 8.30
